Biological target: T1, human CD47 (hCD47) expressed on cells (human, UniProt Q08722 19-323)
T1 construct: Transfected CHO cells or endogenous CD47 of human cells; also called CHO-hCD47; CD47 on Raji cells
Test: flow cytometry, Raji cells
metric name: EC50
A complete answer gives the number followed by the unit.

In the examples that follow, each entry is paired with its recorded EC50.
{"binder": "hIgG4 chimeric candidate 22 (mouse VH/VL, human Fcγ4-S228P and human Kappa backbone) (antibody, V domains shown, hIgG4-S228P/kappa; also called Chim; 22) VH: QVQLQQPGAELVKPGASVKLSCKASGYTFTTYWMHWVKQRPGQGLEWIGMIHPNSGTTNYNEKFKSKATLTVDKSSSSTYMQLSSLTSEDSAVYYCTRSHYYDGHFSYWGQGTLVTVSA VL: DIVMSQSPSSLAVSAGEKVTMSCKSSQSLLNSRTRKNYLAWYQQKPGQSPKLLIYWASTRESGVPDRFTGSGSGTDFTLTISSVQAEDLAVYYCKQSYNLWTFGGGTRLEIKR", "metric name": "EC50", "observed measurement": "0.122 µg/mL"}
{"binder": "h22-VH3-VL4 (candidate 22.12) (antibody, human IgG4 S228P, kappa, V domains shown, hIgG4-S228P/kappa) VH: QVQLQESGAEVKKPGASVKVSCKASGYTFTTYWMHWVRQAPGQGLEWMGMIHPNSGTTNYNEKFKSRVTMTRDTSTSTVYMELSSLRSEDTAVYYCTRSHYYDGHFSYWGQGTLVTVSS VL: DIVMTQSPDSLPVSLGERATINCKSSQSLLNSRTRKNYLAWYQQKPGQPPKLLIYWASTRESGVPDRFTGSGSGTDFTLTISALQAEDVAVYYCKQSYNLWTFGQGTRLEIKR", "metric name": "EC50", "observed measurement": "0.108 µg/mL"}

[ask] For the binder h22-VH4-VL3 (candidate 22.15) (antibody, human IgG4 S228P, kappa, V domains shown, hIgG4-S228P/kappa) VH: QVQLVQSGAEVKKPGASVKVSCKGSGYTFTTYWMHWVRQAPGQGLEWMGMIHPNSGTTNYNEKFKSRVTLTRDTSISTAYMELSRLTSDDTAVYYCTRSHYYDGHFSYWGQGTMVTVSS VL: EIVLTQSPDSLAVSLGERATINCKSSQSLLNSRTRKNYLAWYQQKAGQSPKLLIYWASTRESGVPDRFSGSGSGTDFTLTIDSLQAEDVAVYYCKQSYNLWTFGGGTKVEIKR , what EC50 is on record?
[reply] 0.124 µg/mL

[ask] For the binder h22-VH3-VL3 (candidate 22.11) (antibody, human IgG4 S228P, kappa, V domains shown, hIgG4-S228P/kappa) VH: QVQLQESGAEVKKPGASVKVSCKASGYTFTTYWMHWVRQAPGQGLEWMGMIHPNSGTTNYNEKFKSRVTMTRDTSTSTVYMELSSLRSEDTAVYYCTRSHYYDGHFSYWGQGTLVTVSS VL: EIVLTQSPDSLAVSLGERATINCKSSQSLLNSRTRKNYLAWYQQKAGQSPKLLIYWASTRESGVPDRFSGSGSGTDFTLTIDSLQAEDVAVYYCKQSYNLWTFGGGTKVEIKR , what EC50 is on record?
[reply] 0.139 µg/mL
